Form: system (interphotoreceptor retinoid-binding protein (IRBP) (Bos taurus, UniProt P12661)), quantity (pKd), values below.
pKd: −log10 of the molar value.
measurement-kind: pKd

>>> print(df.to_string())
                                    molecule                              study_system  value_observed
 0  CC/C=C\C/C=C\C/C=C\C/C=C\C/C=C\CCCC(=O)O [Eicosapentaenoic acid (EPA), Eicosapentaenoic acid]  interphotoreceptor retinoid-binding protein (IRBP) (Bos taurus, UniProt P12661)            5.03
 1  CCCCCCCCCCCCCCCCCCCC(=O)O [Arachidic acid]  interphotoreceptor retinoid-binding protein (IRBP) (Bos taurus, UniProt P12661)            4.99
 2  CC1=C(/C=C/C(C)=C/C=C/C(C)=C/C=C/C=C(C)/C=C/C=C(C)/C=C/C2=C(C)C(=O)[C@@H](O)CC2(C)C)C(C)(C)C[C@H](O)C1=O [Astaxanthin]  interphotoreceptor retinoid-binding protein (IRBP) (Bos taurus, UniProt P12661)            5.79
 3  CC1=C[C@H](O)CC(C)(C)[C@H]1/C=C/C(C)=C/C=C/C(C)=C/C=C/C=C(C)/C=C/C=C(C)/C=C/C1=C(C)C[C@@H](O)CC1(C)C [Lutein]  interphotoreceptor retinoid-binding protein (IRBP) (Bos taurus, UniProt P12661)            5.97
 4  CCCCC/C=C\C/C=C\C/C=C\C/C=C\CCCC(=O)O [Arachidonic acid]  interphotoreceptor retinoid-binding protein (IRBP) (Bos taurus, UniProt P12661)            5.00
 5  CC1=C(/C=C/C(C)=C/C=C/C(C)=C/C=C/C=C(C)/C=C/C=C(C)/C=C/C2=C(C)C[C@@H](O)CC2(C)C)C(C)(C)C[C@H](O)C1 [Zeaxanthin]  interphotoreceptor retinoid-binding protein (IRBP) (Bos taurus, UniProt P12661)            5.79
 6  CCCCC/C=C\C/C=C\CCCCCCCC(=O)O [Linoleic acid]  interphotoreceptor retinoid-binding protein (IRBP) (Bos taurus, UniProt P12661)            4.96
 7  CC/C=C\C/C=C\C/C=C\C/C=C\C/C=C\C/C=C\CCC(=O)O [Docosahexaenoic acid (DHA), Docosahexaenoic acid]  interphotoreceptor retinoid-binding protein (IRBP) (Bos taurus, UniProt P12661)            5.00
 8     CCCCCCCCCCCCCCCC(=O)O [Palmitic acid]  interphotoreceptor retinoid-binding protein (IRBP) (Bos taurus, UniProt P12661)            4.95
 9    CCCCCCCCCCCCCCCCCC(=O)O [Stearic acid]  interphotoreceptor retinoid-binding protein (IRBP) (Bos taurus, UniProt P12661)            5.15
10   CCCCCCCC/C=C\CCCCCCCC(=O)O [Oleic acid]  interphotoreceptor retinoid-binding protein (IRBP) (Bos taurus, UniProt P12661)            5.14
11  CC1=C(/C=C/C(C)=C/C=C/C(C)=C/C(=O)O)C(C)(C)CCC1 [all -trans -retinoic acid]  interphotoreceptor retinoid-binding protein (IRBP) (Bos taurus, UniProt P12661)            5.46
12  CC1=C(/C=C/C(C)=C/C=C/C(C)=C/C=C/C=C(C)/C=C/C=C(C)/C=C/C2=C(C)CCCC2(C)C)C(C)(C)CCC1 [β-carotene]  interphotoreceptor retinoid-binding protein (IRBP) (Bos taurus, UniProt P12661)            6.04
